test system: HOP-62 NSCLC; assay: NCI-60 one-dose screen, 48 h; conditions: 10 µM unless noted
Compounds without any hit were thinned out: in the full panel of roughly 83,000, 20% have a hit. Activity calls are given as the source filed them. The calls were made as follows: active = growth percent below 10; inactive = the rest.
Allowed answers: active, inactive

# molecule, test system, category label
records = [
    ("COc1ccc(C2C=C(c3ccc(Cl)cc3)N=C3SC=CN32)cc1 (stereo not given)", "HOP-62 NSCLC", "inactive"),
    ("C=CCOc1c(Br)cc(Br)cc1Br", "HOP-62 NSCLC", "inactive"),
]

What is the recorded call for this molecule in the test? COc1cc(-c2n/c(=C\c3c(O)[nH]c4cc(Cl)ccc34)cc3c2=Nc2ccccc2-3)cc(OC)c1OC
inactive

Name the outcome recorded for COc1c(B(O)O)cccc1-c1nc2ccc3[nH]ncc3c2c2c1CCCC2 in the assay.
active

Per the assay record, what outcome was assigned to O=C(O)c1ccccc1N=Cc1ccccc1 ?
inactive

Assay outcome for O=C1CC2(O)CSc3nc(=O)cc(n32)N1 (stereo not given) : what was it?
inactive

###

tested on: HCT-116 colon; assay: NCI-60 one-dose screen, 48 h (100 = growth as untreated, 0 = no growth, -100 = all killed); conditions: 10 µM unless noted
This is part of a sample that, as a whole, favours compounds with a hit. Of some 83,000 tested, about 20% had one in any assay.
Below: a set of entries, each annotated with reported growth.
Give your result in % as a bare value.

# compound, unit string, growth
data = [
    ("O=C(CI)NCCNc1cccc2c(S(=O)(=O)O)cccc12", "%", 96),
]

Answer with the recorded growth of CC(C)c1ccc(Cn2ccc3c4c(N)nc(NC5CC5)nc4ccc32)cc1 only.
-82.8

For the compound Clc1ccc2c(c1)-c1ccccc1C1=NCCN12 , give its reported growth.
21

Provide only the value of recorded growth for Clc1ccc(Nc2ncnc3c2sc2ncccc23)c(Cl)c1
27.6

Fill in reported growth for this entry: CC(CN1CCN(C)CC1)CN1c2ccccc2Sc2ccc(C(F)(F)F)cc21 (stereo unspecified)
21.6

Could you please provide reported growth for COc1ccc(C(=O)c2c(N)nc3n2CCCC3)cc1OC ? Thanks!
91.9

###

tested on: MDA-MB-435 melanoma; test: NCI-60 one-dose screen, 48 h (100 = growth as untreated, 0 = no growth, -100 = all killed); details: 10 µM unless noted
Compounds without any hit were thinned out: in the full panel of roughly 83,000, 20% have a hit.
Parameter: growth. Scope: all listed entries.
I only need the number, in %, no unit after it.

Worked cases, answers included:
# compound, growth / %
rows = [
    ("COc1ccc([C@@H]2[C@@H](Cl)C(=O)N2c2cc(OC)c(OC)c(OC)c2)cc1C", -33.7),
    ("CC1=C(C(=O)Nc2ccc(F)cc2)C(c2ccc(Cl)cc2)C2=C(CC(C)(C)CC2=O)N1 (configuration not stated)", 91.6),
    ("CC(=O)Nc1nonc1-c1nc2ccccc2n1Cc1ccc(C(C)(C)C)cc1", 86),
    ("COc1cc2nccc(Oc3ccc(NC(=O)C4(C(=O)Nc5c(F)cc(F)cc5F)CC4)cc3)c2cc1Oc1ccc(N)cn1", 3.8),
    ("C#CC[C@@H]1C[C@]2(C)[C@H]3CC[C@@H]4[C@H]5C(C(=C)C)CC[C@]5(C(=O)NCCCCCCCCN)CC[C@@]4(C)[C@]3(C)CC[C@H]2C(C)(C)[C@H]1OC(C)=O (some centres not stated)", 76.5),
    ("O=C1C2=C(C(=O)c3c(O)ccc(O)c31)N(c1ccc(N3CCOCC3)nc1)Cc1ccccc1O2", -28.6),
]

Give the value of growth reported for the following: Cc1cc(C)cc(NC(=O)Cn2nncc2CN2C(=O)CSC2=O)c1
103

Retrieve growth measured for CCC(=O)NC(O)C(Cl)(Cl)C(C)Cl (configuration not stated) and print it.
96.8

Give me measured growth, please, for this compound: CC(C)NC(=O)OCC#CCOC(=O)NC(C)C
110

Return the recorded growth value; entry: Cc1nc2c(-c3cnc(N)nc3)nc(N3CCOCC3)nc2n1C(C)C
4.17

Tell me measured growth for CCCCCCCCCCCCCC(=S)NCCCC[C@H](NC(=O)OCc1ccccc1)C(=O)Nc1ccccc1 please.
51.4

Give growth for CC(=O)c1ccc(Nc2nc(Cl)nc(Oc3c(Cl)cccc3Cl)n2)cc1
89.9

Check the records and state growth for CC(C)N1CCN(c2ccncc2S(=O)(=O)N2CCN(C)CC2)CC1
101

Supply growth value. Item: O=c1[nH]cnc2nc[nH]c12
93.5

Could you please provide reported growth for CC(=O)Nc1ccc(Cl)cc1Cl ? Thanks!
96

Return reported growth. Input compound: COc1ccc(/C(=C\c2cc(OC)c(OC)c(OC)c2)C(=O)N2CCCNCC2)cc1
111

// Input: COCCCNCC(=O)Nc1c(C)cccc1C . Output its growth only.
112
